- Assayed target: OsWRKY34 (Oryza sativa, UniProt Q0JBA9 1-250)
- Sequence (Q0JBA9 entry or part of it): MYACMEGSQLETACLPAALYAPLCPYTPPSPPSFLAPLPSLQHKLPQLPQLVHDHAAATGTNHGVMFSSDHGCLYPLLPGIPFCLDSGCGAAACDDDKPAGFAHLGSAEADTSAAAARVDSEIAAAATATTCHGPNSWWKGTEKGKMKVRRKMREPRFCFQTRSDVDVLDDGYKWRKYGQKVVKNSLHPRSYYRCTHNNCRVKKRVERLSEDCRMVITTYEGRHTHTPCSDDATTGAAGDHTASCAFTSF
- Procedure details: protein-binding microarray (RPBM); PBS, 2% BSA, 51.3 ng/ul salmon testes DNA, 50 uM zinc acetate, 200 nM TF, 25 C, 1 h; high values mean tight binding
- Details: protein: recombinant; tags: N-terminal polyhistidine and DsRed monomer fusion (pET32a); label: CyDye5-dUTP incorporated in the synthesized complementary strand; 3' TTTTT single-stranded linker to array surface; dsDNA, one strand shown
The full ranking holds about 68,000 sequences; the median of “fluorescence intensity (a.u.)” is about 9,100, and the highest 2% start at about 16,000. Shown is part of a subset that was picked to be rich in the highest values.
Assay readout: binding signal

TGACTTTTTAGTACGTGTTTGATCATTCGTCTTATTCAAACGGAGTCACCTAGTGCAG = 10800 fluorescence intensity (a.u.)
ACAAATTTGTAGCCCGCTGCTCTTCTCTCTCATCTTTTATCGGAGTCACCTAGTGCAG = 9220 fluorescence intensity (a.u.)
GGCGGCGGCGGCGGCGGAGGTTGGGAAGGAGAGGGAGGGGCGGAGTCACCTAGTGCAG = 11800 fluorescence intensity (a.u.)
GCTAGCGCTGGAATGGTCCTACTTCTTTCATTTACAACATCGGAGTCACCTAGTGCAG = 8690 fluorescence intensity (a.u.)
CGGAGAAGTCCGGGCAGGCAAGGGGATGGGGATGGGGATGCGGAGTCACCTAGTGCAG = 12400 fluorescence intensity (a.u.)
GTTCAGTCACTCGCACGCTCGCTCGATCACCCGGCCGCCGCGGAGTCACCTAGTGCAG = 10200 fluorescence intensity (a.u.)
CGCGGGGAGGGAGGGAGGGAAGGAGAGGAGGAAGAGGATGCGGAGTCACCTAGTGCAG = 9410 fluorescence intensity (a.u.)
ACCTCTAACCGCCACTAGTTTTTTATACTCTTCTCTATAGCGGAGTCACCTAGTGCAG = 8470 fluorescence intensity (a.u.)
CTTCGTTTTTTAATAGATGACGCCGTTGACTTTTTCTCACCGGAGTCACCTAGTGCAG = 22000 fluorescence intensity (a.u.)
GCGCTCCCGTCGTTGTCTCCGCTGCTTTGTTTCTCGTCGCCGGAGTCACCTAGTGCAG = 11600 fluorescence intensity (a.u.)
AGGCAACACATACAATGTATCACCTCTAACACACAAATACCGGAGTCACCTAGTGCAG = 8410 fluorescence intensity (a.u.)
AAGGGGATCGGAGATGCCGCTGGGCAAGTACTACTGCGACCGGAGTCACCTAGTGCAG = 29900 fluorescence intensity (a.u.)
GGGCTGTTGTGTGTGTGTTTTGCGACGTGCCGTGCTGGGCCGGAGTCACCTAGTGCAG = 8290 fluorescence intensity (a.u.)
TGCTGGTGGTGGTGGTGGGGATCGAGCCGCTCGCTTCGACCGGAGTCACCTAGTGCAG = 11700 fluorescence intensity (a.u.)
CCGTTTCCCGCCGCTGTCTCCCGCCGGAGCCGCCCCTGCTCGGAGTCACCTAGTGCAG = 9030 fluorescence intensity (a.u.)
GCCGCCATCGTTCCTGTTCGCCGCCCGTTGTCCTTCCAATCGGAGTCACCTAGTGCAG = 13000 fluorescence intensity (a.u.)
CGCAATCCACTTTCTCTCGCCAAGTCGTCGTCCATCCGATCGGAGTCACCTAGTGCAG = 9020 fluorescence intensity (a.u.)
GCCATCCTCCGCGACGCACATCGTCCGTCCCACCACGATGCGGAGTCACCTAGTGCAG = 10400 fluorescence intensity (a.u.)
AATGTTTGATACCGTTGACTTTTTAGTACGTGTTTGATCACGGAGTCACCTAGTGCAG = 32600 fluorescence intensity (a.u.)
